target: Fatty-acid amide hydrolase 1 (Homo sapiens) (UniProt O00519); test: Inhibition of human recombinant FAAH using AMC arachidonoyl amide as substrate assessed as residual activity at 10 uM by fluorescence assay
Sequence (O00519 whole entry): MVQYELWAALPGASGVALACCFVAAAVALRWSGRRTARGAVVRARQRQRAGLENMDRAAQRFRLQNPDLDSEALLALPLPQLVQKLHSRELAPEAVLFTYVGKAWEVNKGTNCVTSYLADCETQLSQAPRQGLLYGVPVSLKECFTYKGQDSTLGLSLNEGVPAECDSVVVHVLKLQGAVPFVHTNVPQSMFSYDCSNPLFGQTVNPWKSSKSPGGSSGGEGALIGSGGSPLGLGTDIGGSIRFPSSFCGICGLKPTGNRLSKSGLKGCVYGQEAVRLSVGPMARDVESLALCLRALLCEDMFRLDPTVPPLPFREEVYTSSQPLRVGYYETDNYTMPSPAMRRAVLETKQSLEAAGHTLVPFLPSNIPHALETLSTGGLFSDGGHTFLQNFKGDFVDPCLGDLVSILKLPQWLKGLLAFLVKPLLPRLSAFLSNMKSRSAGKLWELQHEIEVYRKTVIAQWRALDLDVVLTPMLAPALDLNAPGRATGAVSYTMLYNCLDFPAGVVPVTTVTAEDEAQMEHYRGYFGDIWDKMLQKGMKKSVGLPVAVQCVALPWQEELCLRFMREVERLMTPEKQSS
Listed below: Activity values for each entry.
metric: Activity (%)

molecule	measured-target	observed-measurement
CC(=O)Oc1ccccc1C(=O)NCCc1c[nH]c2ccc(O)cc12	Fatty-acid amide hydrolase 1 (Homo sapiens) (UniProt O00519)	99
O=C(NCCc1c[nH]c2ccc(O)cc12)c1ccccc1O	Fatty-acid amide hydrolase 1 (Homo sapiens) (UniProt O00519)	101
CC(C(=O)NCCc1c[nH]c2ccc(O)cc12)c1ccc(-c2ccccc2)c(F)c1 (stereo not given)	Fatty-acid amide hydrolase 1 (Homo sapiens) (UniProt O00519)	85
CC(C(=O)NCCc1c[nH]c2ccc(O)cc12)c1cccc(C(=O)c2ccccc2)c1 (stereo not given)	Fatty-acid amide hydrolase 1 (Homo sapiens) (UniProt O00519)	88
COc1ccc2c(c1)c(CC(=O)NCCc1c[nH]c3ccc(O)cc13)c(C)n2C(=O)c1ccc(Cl)cc1	Fatty-acid amide hydrolase 1 (Homo sapiens) (UniProt O00519)	94
